Target: thymidylate synthase (TS) (Mus musculus)
Sequence (P07607 whole entry): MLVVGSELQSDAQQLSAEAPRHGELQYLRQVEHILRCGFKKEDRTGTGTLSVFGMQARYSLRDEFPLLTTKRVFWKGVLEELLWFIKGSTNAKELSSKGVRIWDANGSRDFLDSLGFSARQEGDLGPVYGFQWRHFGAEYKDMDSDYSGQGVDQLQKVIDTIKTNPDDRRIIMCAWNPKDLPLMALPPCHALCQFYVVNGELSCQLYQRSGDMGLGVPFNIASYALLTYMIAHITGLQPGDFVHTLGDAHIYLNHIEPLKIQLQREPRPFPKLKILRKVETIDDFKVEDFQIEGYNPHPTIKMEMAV
Assay: TS activity in intact L1210/TK^− cells (tritium release)
Format: cell-based, murine
Details: tritium release from [5-3H]dCyd, 4 hours preincubation; read-out: IC50 against TS, L1210/TK^−
Measure Name: IC50 (nM)
Give just the numeric value; nM need not be written.

Challenge: Param item = O=c1[nH]c(=O)n([C@H]2C[C@H](O)[C@@H](CO)O2)cc1F [5-FdUrd, 5-fluoro-2′-deoxyuridine, reference compound] ; retrieve measured IC50.
Response given: 1420

Challenge: Query: IC50; subject: C[C@H](NP(=O)(OC[C@H]1O[C@@H](n2cc(F)c(=O)[nH]c2=O)CC1O)Oc1cccc2ccccc12)C(=O)OCc1ccccc1 (some centres unmarked)
Response given: 53
